- SYSTEM: Gag-Pol polyprotein [588-1027]/[588-1147] (Human immunodeficiency virus 1)
- Construct: 588-1027; 588-1147
- EXPERIMENTAL DETAILS: HIV-1 RT Assay
In this section we review reported log10(IC50) values for a set of compounds.
QUANTITY NAME: log10(IC50) (log10 of the value in nM)

COMPOUND	log10(IC50)
Cc1c(C(C)(C)C)s/c(=N\S(=O)(=O)c2cccc(Cl)c2O)n1C	3.80
Cc1c(C(C)C)s/c(=N\S(=O)(=O)c2cc(C#N)ccc2C#N)n1C [thiazolidenebenzenesulfonamide deriv.]	1.08
Cc1c(C(C)C)s/c(=N\S(=O)(=O)c2cc(Cl)ccc2C#N)n1C	1.04
CC(C)c1s/c(=N\S(=O)(=O)c2cc(Cl)ccc2C#N)n(C)c1Cl	0.95
Cc1c(C(C)C)s/c(=N\S(=O)(=O)c2cc(F)ccc2C#N)n1C	1.96
Cc1c(C(C)(C)C)s/c(=N\S(=O)(=O)c2cc(Cl)ccc2C#N)n1C	2.26
Cc1c(C(C)(C)C)s/c(=N\S(=O)(=O)c2cc(Cl)ccc2N)n1C	2.28
Cc1c(C(C)(C)C)s/c(=N\S(=O)(=O)c2cc(Cl)ccc2[N+](=O)[O-])n1C	3.38
Cc1c(C(C)(C)C)s/c(=N\S(=O)(=O)c2cccc(O)c2)n1C	3.94
Cc1c(C(C)C)s/c(=N\S(=O)(=O)c2cc(Br)ccc2C#N)n1C	1.26
Cc1c(C(C)(C)C)s/c(=N\S(=O)(=O)c2cc(Cl)ccc2O)n1C	1.51
Cc1c(C(C)(C)C)s/c(=N\S(=O)(=O)c2ccccc2O)n1C	3.20
CC(C)c1s/c(=N\S(=O)(=O)c2cc(Br)ccc2O)n(C)c1Cl	0.63
CC(C)c1s/c(=N\S(=O)(=O)c2cc(Cl)ccc2O)n(C)c1Cl	0.97
COc1cccc(S(=O)(=O)/N=c2\sc(C(C)(C)C)c(C)n2C)c1	3.94
CC(C)c1s/c(=N\S(=O)(=O)c2cc(C#N)ccc2C#N)n(C)c1Cl	0.98
Cc1c(C(C)(C)C)s/c(=N\S(=O)(=O)c2ccccc2)n1C	3.69

---

- SYSTEM: Gag-Pol polyprotein [588-1027,K690N]/[588-1147,K690N] (Human immunodeficiency virus 1, UniProt P04585, K690N)
- Construct: 588-1027; 588-1147
- EXPERIMENTAL DETAILS: HIV-1 RT Assay
Below: a set of entries, each annotated with reported IC50.

COMPOUND	IC50
Cc1c(C(C)(C)C)s/c(=N\S(=O)(=O)c2ccccc2)n1C	> 50 µM
CC(C)c1s/c(=N\S(=O)(=O)c2cc(Cl)ccc2C#N)n(C)c1Cl	3.7 µM
Cc1c(C(C)(C)C)s/c(=N\S(=O)(=O)c2cc(Cl)ccc2O)n1C	1.1 µM
Cc1c(C(C)C)s/c(=N\S(=O)(=O)c2cc(F)ccc2C#N)n1C	> 10 µM
CC(C)c1s/c(=N\S(=O)(=O)c2cc(Cl)ccc2O)n(C)c1Cl	0.17 µM
Cc1c(C(C)(C)C)s/c(=N\S(=O)(=O)c2cccc(Cl)c2O)n1C	> 50 µM
Cc1c(C(C)C)s/c(=N\S(=O)(=O)c2cc(Br)ccc2C#N)n1C	3.9 µM
Cc1c(C(C)(C)C)s/c(=N\S(=O)(=O)c2cc(Cl)ccc2C#N)n1C	> 50 µM
CC(=O)Nc1ccc(Cl)cc1S(=O)(=O)/N=c1\sc(C(C)(C)C)c(C)n1C	> 50 µM
Cc1c(C(C)C)s/c(=N\S(=O)(=O)c2cc(C#N)ccc2C#N)n1C [thiazolidenebenzenesulfonamide deriv.]	4.1 µM

---

- SYSTEM: Gag-Pol polyprotein [588-1027]/[588-1147] (Human immunodeficiency virus 1)
- Construct: 588-1027; 588-1147
- EXPERIMENTAL DETAILS: HIV-1 RT Assay
- EXPERIMENTAL PARAMETERS: pH 8.4; 37 °C
Measured IC50, listed per entry for reference.
QUANTITY NAME: IC50

RECORD SMILES	REPORTED MEASUREMENT
Cc1c(C(C)(C)C)s/c(=N\S(=O)(=O)c2cccc(Cl)c2)n1C	0.3 µM
COc1ccccc1S(=O)(=O)/N=c1\sc(C(C)(C)C)c(C)n1C	50 µM
Cc1c(C(C)(C)C)s/c(=N\S(=O)(=O)c2ccccc2Cl)n1C	> 10 µM
Cc1c(C(C)(C)C)s/c(=N\S(=O)(=O)c2ccc(Cl)cc2)n1C	> 10 µM
Cc1c(C(C)(C)C)s/c(=N\S(=O)(=O)c2ccccc2[N+](=O)[O-])n1C	> 50 µM
Cc1c(C(C)(C)C)s/c(=N\S(=O)(=O)c2ccc([N+](=O)[O-])cc2)n1C	> 10 µM

---

- SYSTEM: Gag-Pol polyprotein [588-1127,Y768C]/[588-1147,Y768C] (Human immunodeficiency virus 1, UniProt P04585, Y768C)
- Construct: 588-1127; 588-1147
- EXPERIMENTAL DETAILS: HIV-1 RT Assay
- Excerpt: The IC50 of reverse transcriptase is the concentration that inhibits 50% of recombinant HIV-1 RT RNA-directed DNA polymerase activity in vitro.
QUANTITY NAME: log10 IC50 (log10 of the value in µM)

RECORD SMILES	REPORTED MEASUREMENT
Cc1c(C(C)C)s/c(=N\S(=O)(=O)c2cc(Cl)ccc2C#N)n1C	-0.70
Cc1c(C(C)(C)C)s/c(=N\S(=O)(=O)c2cc(Cl)ccc2N)n1C	-0.96
Cc1c(C(C)(C)C)s/c(=N\S(=O)(=O)c2cc(Cl)ccc2O)n1C	-1.96
Cc1c(C(C)(C)C)s/c(=N\S(=O)(=O)c2cccc(O)c2)n1C	1.15
Cc1c(C(C)C)s/c(=N\S(=O)(=O)c2cc(F)ccc2C#N)n1C	0.32
COC(=O)c1ccc(Cl)cc1S(=O)(=O)/N=c1\sc(C(C)(C)C)c(C)n1C	1.00
CC(C)c1s/c(=N\S(=O)(=O)c2cc(C#N)ccc2C#N)n(C)c1Cl	-0.68

---

- SYSTEM: Gag-Pol polyprotein [588-1127,Y768C]/[588-1147,Y768C] (Human immunodeficiency virus 1, UniProt P04585, Y768C)
- Construct: 588-1127; 588-1147
- EXPERIMENTAL DETAILS: HIV-1 RT Assay
- Text: The IC50 of reverse transcriptase is the concentration that inhibits 50% of recombinant HIV-1 RT RNA-directed DNA polymerase activity in vitro.
# maps each entry to its IC50
QUANTITY NAME: IC50 (nM)

RECORD SMILES	QUANTITY NAME	UNIT SYMBOL	LIMIT OPERATOR	REPORTED MEASUREMENT
CC(C)c1s/c(=N\S(=O)(=O)c2cc(Cl)ccc2C#N)n(C)c1Cl	IC50	nM	=	91
Cc1c(C(C)(C)C)s/c(=N\S(=O)(=O)c2ccccc2O)n1C	IC50	nM	=	410
Cc1c(C(C)(C)C)s/c(=N\S(=O)(=O)c2cc(Cl)ccc2C(N)=O)n1C	IC50	nM	>	10000
Cc1c(C(C)(C)C)s/c(=N\S(=O)(=O)c2cc(Cl)ccc2C#N)n1C	IC50	nM	=	69
Cc1c(C(C)(C)C)s/c(=N\S(=O)(=O)c2ccccc2)n1C	IC50	nM	=	5100

---

IC50 overview
- SYSTEM: Gag-Pol polyprotein [588-1127,Y768C]/[588-1147,Y768C] (Human immunodeficiency virus 1, UniProt P04585, Y768C)
- Construct: 588-1127; 588-1147
- EXPERIMENTAL DETAILS: HIV-1 RT Assay
- EXPERIMENTAL PARAMETERS: pH 8.4; 37 °C

RECORD SMILES	LIMIT OPERATOR	IC50, µM
Cc1c(C(C)(C)C)s/c(=N\S(=O)(=O)c2ccccc2Cl)n1C	>	10
Cc1c(C(C)(C)C)s/c(=N\S(=O)(=O)c2cccc(Cl)c2)n1C	=	0.044
Cc1c(C(C)(C)C)s/c(=N\S(=O)(=O)c2ccc(Cl)cc2)n1C	>	10
Cc1c(C(C)(C)C)s/c(=N\S(=O)(=O)c2ccc([N+](=O)[O-])cc2)n1C	>	10
Cc1c(C(C)(C)C)s/c(=N\S(=O)(=O)c2ccccc2[N+](=O)[O-])n1C	=	36

---

This listing pairs compounds with measured IC50.
- SYSTEM: Gag-Pol polyprotein [588-1027,K690N]/[588-1147,K690N] (Human immunodeficiency virus 1, UniProt P04585, K690N)
- Construct: 588-1027; 588-1147
- EXPERIMENTAL DETAILS: HIV-1 RT Assay
QUANTITY NAME: IC50

RECORD SMILES	REPORTED MEASUREMENT
Cc1c(C(C)(C)C)s/c(=N\S(=O)(=O)c2cc(Cl)ccc2[N+](=O)[O-])n1C	> 50 µM
COc1ccc(S(=O)(=O)/N=c2\sc(C(C)(C)C)c(C)n2C)cc1	> 10 µM
Cc1c(C(C)(C)C)s/c(=N\S(=O)(=O)c2cc(Cl)ccc2NS(C)(=O)=O)n1C	> 50 µM
COc1cccc(S(=O)(=O)/N=c2\sc(C(C)(C)C)c(C)n2C)c1	> 50 µM
Cc1c(C(C)(C)C)s/c(=N\S(=O)(=O)c2cc(Cl)ccc2C(N)=O)n1C	> 10 µM
Cc1c(C(C)(C)C)s/c(=N\S(=O)(=O)c2cc(Cl)ccc2N)n1C	17 µM

Where do these numbers come from? They come from BindingDB's records for doi:10.1016/j.bmc.2004.11.045.
